// reported IC50 for each item listed
target: Neuropeptides B/W receptor type 1 (Homo sapiens); experiment: GPR7 antagonists, late-stage follow-up, cell-based, fluorescence, dose response, set 3 (AID 540365); conditions: GPR7-expressing cells, fluorescence antagonist read-out; run 3
Calls of active or inactive are those of the source. No rule for the calls is given here.

Past entries and their recorded results:
1. CCCOc1ccc(Oc2c(Cl)cnn(C3c4ccccc4-c4ccccc43)c2=O)cc1
> 20000 nM (inactive)
2. CCOC(=O)C(c1cccc2ccccc12)n1ncc(Cl)c(Oc2ccc(OC)cc2)c1=O (stereo not given)
1310 nM
3. CCCOc1ccc(Oc2c(Cl)cnn(Cc3cccc4ccccc34)c2=O)cc1
1120 nM
4. CCOC(=O)C(c1ccccc1)n1ncc(Cl)c(Oc2ccc(OC)cc2)c1=O (stereo not given)
953 nM
5. COc1ccc(Oc2c(Cl)cnn(Cc3ccc4ccccc4c3)c2=O)cc1
2020 nM
6. CCOc1ccc(Oc2c(S(C)=O)cnn(Cc3cccc4ccccc34)c2=O)cc1 (stereo not given)
2090 nM

[Q] Reported IC50 for C=Cc1nn(Cc2ccccc2C)c(=O)c(Oc2ccc(OC)cc2)c1C=C : what is it?
[A] 818 nM

[Q] Reported IC50 for COc1ccc(Oc2c(Cl)c(C#N)nn(Cc3ccccc3C)c2=O)cc1 : what is it?
[A] 1190 nM

[Q] Returns the measured IC50 for the input compound. Input: CCOc1ccc(Oc2c(Cl)cnn(C3c4ccccc4-c4ccccc43)c2=O)cc1
[A] 207 nM

[Q] Recorded IC50 of COc1ccc(Oc2c(C#N)cnn(Cc3cccc4ccccc34)c2=O)cc1 , please.
[A] 2490 nM

[Q] Recorded IC50 for COc1ccc(Oc2c(Cl)cnn(Cc3cccc4cnccc34)c2=O)cc1 , please?
[A] 4930 nM

[Q] Recorded IC50 of COc1ccc(Nc2c(Cl)cnn(Cc3cccc4ccccc34)c2=O)cc1 , please.
[A] > 20000 nM (inactive)

[Q] Could you share which IC50 value was measured for COc1ccc(Oc2c(Cl)cnn(Cc3c(F)cccc3F)c2=O)cc1 ?
[A] 719 nM

[Q] What does the data say about its IC50? Entry: COc1ccc(Oc2c(Cl)cnn(C(c3ccccc3)c3ccccc3)c2=O)cc1
[A] 481 nM

[Q] Endpoint output: IC50 of COc1ccc(Oc2c(Br)cnn(Cc3cccc4ccccc34)c2=O)cc1 . Value?
[A] 240 nM

---

biological target: Neuropeptides B/W receptor type 1 (Homo sapiens); experiment: GPR7 antagonists, late-stage follow-up, cell-based, fluorescence, dose response, set 3 (AID 540365); settings: GPR7-expressing cells, fluorescence antagonist read-out; run 2
Activity calls are given as the source filed them. No rule for the calls is given here.
// one of 1 for active, 0 for inactive, no free text

A selection of reference data follows.
1. CCOc1ccc(Oc2c(Cl)cnn(C3c4ccccc4-c4ccccc43)c2=O)cc1
1
2. CCCOc1ccc(Oc2c(Cl)cnn(C3c4ccccc4-c4ccccc43)c2=O)cc1
0
3. CCOC(=O)C(c1cccc2ccccc12)n1ncc(Cl)c(Oc2ccc(OC)cc2)c1=O (configuration not stated)
1
4. COc1ccc(Oc2c(Br)cnn(Cc3cccc4ccccc34)c2=O)cc1
1
5. COc1ccc(Oc2c(Cl)c(C#N)nn(Cc3ccccc3C)c2=O)cc1
1
6. CCCOc1ccc(Oc2c(Cl)cnn(Cc3cccc4ccccc34)c2=O)cc1
1

[Q] # outcome recorded in this test, key = COc1ccc(Nc2c(Cl)cnn(Cc3cccc4ccccc34)c2=O)cc1
[A] 1

[Q] What was the test verdict on COc1ccc(Oc2c(Cl)cnn(C(c3ccccc3)c3ccccc3)c2=O)cc1 ?
[A] 1

[Q] Status in this test for CCOC(=O)C(c1ccccc1)n1ncc(Cl)c(Oc2ccc(OC)cc2)c1=O (configuration not stated) ?
[A] 1
